Kindly supply the reported pIC50 values for the records listed here.
- test.name: Inhibitory activity against phytohemagglutininin A-induced proliferation of human lymphocytes
- Assay type: functional
One number for each entry, as −log10 of the molar value.

[
  {
    "molecule": "COc1ccc(C(=O)/C=C/c2cccc(Oc3ccccc3)c2)c(OC)c1OC",
    "pIC50": 4.77
  },
  {
    "molecule": "COc1cc(OC)c(/C=C/C(=O)c2ccc(O)cc2)c(OC)c1",
    "pIC50": 4.36
  },
  {
    "molecule": "COc1cc(/C=C/C(=O)c2ccc(C3CCCCC3)cc2)cc(OC)c1",
    "pIC50": 4.41
  },
  {
    "molecule": "C=CCOc1ccc(C(=O)/C=C/c2cc(OC)c(OC)c(OC)c2)cc1",
    "pIC50": 4.52
  },
  {
    "molecule": "COc1ccc(C(=O)/C=C/c2ccc(C#N)cc2)c(OC)c1OC",
    "pIC50": 5.27
  },
  {
    "molecule": "COc1cc(OC)c(OC)cc1/C=C/C(=O)c1ccc(O)cc1",
    "pIC50": 4.55
  },
  {
    "molecule": "COc1ccc(/C=C/C(=O)c2ccccc2OC)c(OC)c1",
    "pIC50": 4.59
  },
  {
    "molecule": "COc1cc(/C=C/C(=O)c2cccc(F)c2)cc(OC)c1",
    "pIC50": 5.04
  },
  {
    "molecule": "COc1cc(/C=C/C(=O)c2cccc(O)c2)cc(OC)c1",
    "pIC50": 5.49
  },
  {
    "molecule": "O=C(/C=C/c1ccccc1)c1ccccc1",
    "pIC50": 4.68
  }
]

The following molecules each have a reported value; give each one's pIC50.
1. C=CCOc1ccc(C(=O)/C=C/c2cc(OC)ccc2OC)cc1
2. COc1ccc(/C=C/C(=O)c2cccc([N+](=O)[O-])c2)c(OC)c1
3. COc1cc(O)ccc1/C=C/C(=O)c1ccc(O)cc1
4. O=C(/C=C/c1ccc(O)cc1)c1ccc(O)cc1 [4,4'-DIHYDROXYCHALCONE]
5. COc1cc(/C=C/C(=O)c2ccccc2N(C)C)cc(OC)c1
6. C=CCOc1ccc(C(=O)/C=C/c2cc(OC)cc(OC)c2)cc1
7. O=C(/C=C/c1ccccc1)c1ccc(F)cc1
8. C=CCOc1ccc(C(=O)/C=C/c2cc(OC)c(CCCCCC)c(OC)c2)cc1

[4.26, 4.74, 4.03, 4.23, 5.24, 4.60, 4.64, 4.82]

Would you mind giving pIC50 for every molecule in the list below?
1. COc1cccc(/C=C/C(=O)c2ccc(O)cc2)c1OC
2. COc1ccc(C(=O)/C=C/c2ccccc2O)c(OC)c1OC

1: 4.15; 2: 5.05

Below are some molecules; for each one, tell me its pIC50.
1. COc1cc(O)cc(C)c1/C=C/C(=O)c1ccc(O)cc1
2. CCCCCCc1cc(/C=C/C(=O)c2ccc(O)cc2)c(OC)cc1O
3. C=CC(C)(C)c1cc(/C=C/C(=O)c2ccc(O)cc2)c(OC)cc1O

1: 4.28; 2: 4.34; 3: 4.32

---

- test.name: Inhibitory activity against phytohemagglutininin A-induced proliferation of human lymphocytes; Not tested due to low solubility
- Format: functional
measured.metric: IC50

Solved cases (5 shown):
[
  {
    "smiles.repr": "CCCCOc1ccc(C(=O)/C=C/c2ccc(OC)cc2OC)cc1",
    "IC50": "Not Active"
  },
  {
    "smiles.repr": "C=CCOc1ccccc1C(=O)/C=C/c1ccc(OC)cc1OC",
    "IC50": "Not Active"
  },
  {
    "smiles.repr": "CN(C)c1ccc(/C=C/C(=O)c2ccc(N(C)C)cc2)cc1",
    "IC50": "Not Active"
  },
  {
    "smiles.repr": "O=C(/C=C/c1ccc(Oc2ccccc2)cc1)c1ccc(C2CCCCC2)cc1",
    "IC50": "Not Active"
  },
  {
    "smiles.repr": "C=CCOc1ccc(C(=O)/C=C/c2cc(OC)c(CCCC)c(OC)c2)cc1",
    "IC50": "Not Active"
  }
]

// recorded IC50 for `CCCCCCOc1ccc(C(=O)/C=C/c2ccc(OC)cc2OC)cc1` : Not Active

---

- test.name: Inhibitory activity against phytohemagglutininin A-induced proliferation of human lymphocytes
- Format: functional
measured.metric: log10 IC50 (log10 of the value in µM)
Log scale reminder: IC50 in µM, then log10 taken.

# example entries with known answers
[
  {
    "compound": "O=C(/C=C/c1ccc(F)cc1)c1ccc(F)cc1",
    "log10 IC50": 1.34
  },
  {
    "compound": "COc1ccc(/C=C/C(=O)c2ccc(O)cc2)c(OC)c1",
    "log10 IC50": 1.85
  },
  {
    "compound": "COc1cc(/C=C/C(=O)c2ccc(O)cc2O)ccc1O [HOMOBUTEIN]",
    "log10 IC50": 1.49
  },
  {
    "compound": "C=CCOc1ccc(C(=O)/C=C/c2cc(OCC=C)ccc2OCC=C)cc1",
    "log10 IC50": 1.79
  },
  {
    "compound": "COc1c(/C=C/C(=O)c2ccc(O)cc2)ccc(O)c1C",
    "log10 IC50": 1.43
  },
  {
    "compound": "O=C(/C=C/c1ccc(Oc2ccccc2)cc1)c1ccc(F)cc1",
    "log10 IC50": 1.52
  }
]

I need log10 IC50 for every entry listed below, if you could help.
1. O=C(/C=C/c1ccc(F)cc1)c1ccc(C2CCCCC2)cc1
2. COc1ccc(C(=O)/C=C/c2cccc([N+](=O)[O-])c2)c(OC)c1OC
3. C=CCOc1ccc(C(=O)/C=C/c2cccc(OC)c2OC)cc1
4. COc1ccc(/C=C/C(=O)c2ccccc2)c(OC)c1
5. COc1cc(/C=C/C(=O)c2ccc([N+](=O)[O-])cc2)cc(OC)c1
6. COc1ccc(/C=C/C(=O)c2ccccc2Br)c(OC)c1
7. COc1ccc(C(=O)/C=C/c2ccc([N+](C)(C)C)cc2)c(OC)c1OC

[1.87, 1.56, 1.98, 1.68, 1.30, 1.54, 1.54]

Consider the following items and state reported log10 IC50 for each.
1. CCCCCCOc1ccc(C(=O)/C=C/c2ccccc2)cc1
2. COc1cc(/C=C/C(=O)c2ccc(OC)c(OC)c2OC)cc(OC)c1
3. COc1ccc(/C=C/C(=O)c2cccc(Br)c2)c(OC)c1
4. O=C(/C=C/c1ccc([N+](=O)[O-])cc1)c1ccc([N+](=O)[O-])cc1
5. CCCCOc1ccccc1C(=O)/C=C/c1cc(OC)cc(OC)c1
6. COc1ccc(C(=O)/C=C/c2ccc(F)c(F)c2)c(OC)c1
7. CCCCOc1cccc(C(=O)/C=C/c2ccc(OC)cc2OC)c1

1. 2.00
2. 0.94
3. 1.57
4. 1.71
5. 1.11
6. 0.72
7. 1.81

---

- test.name: Inhibitory activity against phytohemagglutininin A-induced proliferation of human lymphocytes; Not tested due to low solubility
- Assay type: functional
measured.metric: IC50

[
  {
    "smiles.repr": "COc1cc(/C=C/C(=O)c2ccc(N(C)C)cc2)cc(OC)c1",
    "test.result": "Not Active"
  },
  {
    "smiles.repr": "CN(C)c1ccc(/C=C/C(=O)c2ccc([N+](=O)[O-])cc2)cc1",
    "test.result": "Not Active"
  },
  {
    "smiles.repr": "CN(C)c1ccc(C(=O)/C=C/c2ccc([N+](=O)[O-])cc2)cc1",
    "test.result": "Not Active"
  }
]

---

- test.name: Inhibitory activity against phytohemagglutininin A-induced proliferation of human lymphocytes
- Type: functional
Lab note: compare IC50 with 50 µM, writing fulfilled if less and not fulfilled if equal or more.

# example entries with known answers
[
  {
    "compound": "COc1cc(/C=C/C(=O)c2cccc(N(C)C)c2)cc(OC)c1",
    "class.name": "fulfilled"
  },
  {
    "compound": "C=CCOc1ccc(C(=O)/C=C/c2c(OC)cccc2OC)cc1",
    "class.name": "not fulfilled"
  },
  {
    "compound": "COc1ccc(C(=O)/C=C/c2cccc(F)c2)c(OC)c1OC",
    "class.name": "fulfilled"
  },
  {
    "compound": "COc1ccc(/C=C/C(=O)c2ccccc2O)c(OC)c1",
    "class.name": "not fulfilled"
  },
  {
    "compound": "COc1ccc(OC)c(C(=O)/C=C/c2ccc(Cl)cc2Cl)c1",
    "class.name": "fulfilled"
  }
]

Please determine if `COc1ccc(C(=O)/C=C/c2ccc(Cl)cc2Cl)c(OC)c1OC` is below 50 µM in terms of IC50.
fulfilled

Data provenance: ChEMBL document CHEMBL1131195
